- target_system: T1, LUXMYB R146A (UniProt Q9SNB4 139-200, R146A)
- T1 sequence: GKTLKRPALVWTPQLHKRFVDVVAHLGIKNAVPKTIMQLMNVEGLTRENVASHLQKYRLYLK
- method: EMSA
readout_name: Kd

[
  {
    "binder": "Oligo 4 (GGATCCGA) (dsDNA) DNA 1: ATGATGTCTTCTCGGATCCGATAAAAATGGTGTTG DNA 2: CAACACCATTTTTATCGGATCCGAGAAGACATCAT",
    "result": "120 nM"
  },
  {
    "binder": "Oligo 2 (AGATACGC) (dsDNA) DNA 1: ATGATGTCTTCTCAAGATACGCTAAAAATGGTGTTG DNA 2: CAACACCATTTTTAGCGTATCTTGAGAAGACATCAT",
    "result": "50 nM"
  },
  {
    "binder": "Oligo 3 (AAGATCTT) (dsDNA) DNA 1: ATGATGTCTTCTCAAGATCTTATAAAAATGGTGTTG DNA 2: CAACACCATTTTTATAAGATCTTGAGAAGACATCAT",
    "result": "63 nM"
  },
  {
    "binder": "Oligo 5 (ATATTCGA) (dsDNA) DNA 1: ATGATGTCTTCTCGAATATTCGATAAAAATGGTGTTG DNA 2: CAACACCATTTTTATCGAATATTCGAGAAGACATCAT",
    "result": "137 nM"
  },
  {
    "binder": "Oligo 1 (PRR9 36 bp) (dsDNA) DNA 1: ATGATGTCTTCTCAAGATTCGATAAAAATGGTGTTG DNA 2: CAACACCATTTTTATCGAATCTTGAGAAGACATCAT",
    "result": "50 nM"
  }
]
